- Test system: DLD1
- Procedure summary: TCF/Wnt firefly luciferase reporter signal relative to plate median (fraction of plate median); higher = higher Wnt reporter signal
- Assay setup: 10 µM; treatment time 24 h; reporter: 7TFP
Counter-ions that a name gives are not always drawn.
This listing pairs compounds with measured TCF/Wnt firefly luciferase reporter signal.
Value type: TCF/Wnt firefly luciferase reporter signal

| Compound | Data value |
| --- | --- |
| Clc1ccc(Nc2nnc(Cc3ccncc3)c3ccccc23)cc1 [Vatalanib dihydrochloride (PTK787)] | 0.852 |
| CN(C)C/C=C/C(=O)Nc1cc2c(Nc3ccc(F)c(Cl)c3)ncnc2cc1O[C@H]1CCOC1 | 0.292 |
| O=C(Nc1c[nH]nc1-c1nc2ccc(CN3CCOCC3)cc2[nH]1)NC1CC1 | 0.865 |
| Oc1ccc(-c2nc(-c3ccc(F)cc3)c(-c3ccncc3)[nH]2)cc1 | 0.747 |

###

- Tested on: HCT116
- Procedure summary: cell viability (CellTiter-Glo) relative to plate median (fraction of plate median); higher = more viable cells
- Assay setup: 5 µM; treatment time 24 h; reporter: TCF4/Wnt
This listing pairs compounds with measured cell viability.

| Smiles | cell viability |
| --- | --- |
| N=C(N)N | 0.95 |
| COc1cc(OC)c2ccc(=O)oc2c1 | 0.999 |
| C/C(=C\C(=O)OCCCCCCCCC(=O)O)C[C@@H]1OC[C@H](C[C@@H]2O[C@H]2[C@@H](C)[C@H](C)O)[C@@H](O)[C@H]1O | 1 |
| COc1ccc(-c2coc3cc(O)ccc3c2=O)c(OC)c1 | 1.01 |
| CC(=O)NCCCCCC(=O)O | 1.01 |
| CNCCc1ccccn1 | 0.979 |
| O=C(CCCCC(=O)Nc1c(I)cc(I)c(C(=O)O)c1I)Nc1c(I)cc(I)c(C(=O)O)c1I | 1.08 |
| CC1(C)C[C@@H]2/C(CO)=C\C=C/[C@@](C)(O)CC[C@]21O | 0.946 |
| C=C(C)[C@@H]1CC[C@]2(C(=O)O)CC[C@]3(C)[C@H](CC[C@@H]4[C@@]5(C)CC[C@H](O)C(C)(C)[C@@H]5CC[C@]43C)[C@@H]12 | 1.09 |
| CN(C)CCOc1ccc(/C(=C(/CCCl)c2ccccc2)c2ccccc2)cc1 | 1.02 |
| Nc1ncnc2c1ncn2[C@H]1C[C@H](O)[C@@H](CO)O1 | 1.06 |

###

- Tested on: DLD1
- Procedure summary: cell viability (CellTiter-Glo) relative to plate median (fraction of plate median); higher = more viable cells
- Assay setup: 5 µM; treatment time 24 h; reporter: 7TFP
The threshold is 1. Values of cell viability beneath it are tagged 1.0; values meeting or exceeding it are tagged 0.0.

| Molecule | Experimental target | Group label |
| --- | --- | --- |
| CN[C@H]1CC[C@@H](c2ccc(Cl)c(Cl)c2)c2ccccc21 | DLD1 | 1.0 |
| COc1ccc(C(=O)CC(=O)c2ccc(C(C)(C)C)cc2)cc1 | DLD1 | 1.0 |
| CC(=O)OCC(=O)[C@@]1(O)CC[C@H]2[C@@H]3C[C@H](C)C4=CC(=O)C=C[C@]4(C)[C@H]3[C@@H](O)C[C@@]21C [6alpha-METHYLPREDNISOLONE ACETATE] | DLD1 | 0.0 |
| CC1(C)S[C@@H]2[C@H](NC(=O)[C@H](N)c3ccccc3)C(=O)N2[C@H]1C(=O)O | DLD1 | 1.0 |
| O=C(O)CN(CC(=O)O)Cc1cc2c(cc1O)Oc1cc(O)c(CN(CC(=O)O)CC(=O)O)cc1C21OC(=O)c2ccccc21 | DLD1 | 1.0 |
| COc1cc2c(=O)c(-c3ccc4c(c3)OCO4)coc2c(OC)c1OC | DLD1 | 0.0 |
| Cc1cc(C(C)(C)C)cc(C)c1CC1=NCCN1 | DLD1 | 0.0 |
| CCCCC(CC)CN1CN(CC(CC)CCCC)CC(C)(N)C1 (stereo not given) | DLD1 | 1.0 |
| O=C(/C=C/c1ccc(O)c(O)c1)OCCc1ccccc1 | DLD1 | 1.0 |
| Oc1cc(O)c2c(c1)O[C@H](c1ccc(O)c(O)c1)[C@@H](O)C2 | DLD1 | 0.0 |
| CCOc1cccc(C(=O)c2ccc(O)c(O)c2O)c1 | DLD1 | 0.0 |
